Assayed Target: CYP125 (Mycobacterium tuberculosis)
Sequence (P9WPP1 whole entry): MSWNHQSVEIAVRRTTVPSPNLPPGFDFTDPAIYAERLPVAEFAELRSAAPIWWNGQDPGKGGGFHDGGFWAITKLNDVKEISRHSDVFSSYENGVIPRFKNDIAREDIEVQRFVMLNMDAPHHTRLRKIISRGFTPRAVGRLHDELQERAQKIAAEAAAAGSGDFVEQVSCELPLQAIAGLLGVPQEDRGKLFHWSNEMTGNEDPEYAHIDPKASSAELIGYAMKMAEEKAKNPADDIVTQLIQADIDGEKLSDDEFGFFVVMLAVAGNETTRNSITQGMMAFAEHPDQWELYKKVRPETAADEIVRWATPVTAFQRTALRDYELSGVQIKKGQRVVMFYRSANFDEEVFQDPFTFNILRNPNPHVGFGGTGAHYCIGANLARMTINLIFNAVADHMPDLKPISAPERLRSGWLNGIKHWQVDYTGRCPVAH
Type: binding
Condition Details: compound 100 µM, P450 5 µM; low spin population; '-' = no LS maxima present

[
  {
    "Molecule": "CC(=O)Nc1ccc(Cc2ccncc2)cc1",
    "Units Label": "nm",
    "CYP125 Δλmax (nm) LS": 13
  },
  {
    "Molecule": "c1ccc(N(c2ccccc2)c2ccncc2)cc1",
    "Units Label": "nm",
    "CYP125 Δλmax (nm) LS": 28
  },
  {
    "Molecule": "c1ccc(Oc2ccncc2)cc1",
    "Units Label": "nm",
    "CYP125 Δλmax (nm) LS": 25
  },
  {
    "Molecule": "Nc1ccc(Cc2ccncc2)cc1",
    "Units Label": "nm",
    "CYP125 Δλmax (nm) LS": 29
  },
  {
    "Molecule": "c1ccc(Cc2ccncc2)cc1",
    "Units Label": "nm",
    "CYP125 Δλmax (nm) LS": 27
  },
  {
    "Molecule": "COC(=O)c1cccc(Nc2ccncc2)c1",
    "Units Label": "nm",
    "CYP125 Δλmax (nm) LS": 27
  },
  {
    "Molecule": "C(=C\\c1ccncc1)/c1ccccc1 [2g, (E)-4-Styrylpyridine]",
    "Units Label": "nm",
    "CYP125 Δλmax (nm) LS": 29
  },
  {
    "Molecule": "c1ccc(CCc2ccncc2)cc1",
    "Units Label": "nm",
    "CYP125 Δλmax (nm) LS": 26
  },
  {
    "Molecule": "Brc1ccc(Nc2ccncc2)cc1",
    "Units Label": "nm",
    "CYP125 Δλmax (nm) LS": 29
  },
  {
    "Molecule": "COC(=O)c1ccc(Nc2ccncc2)cc1 [4d, Methyl 4-(pyridin-4-ylamino)benzoate]",
    "Units Label": "nm",
    "CYP125 Δλmax (nm) LS": 26
  },
  {
    "Molecule": "COc1cccc(Cc2ccncc2)c1",
    "Units Label": "nm",
    "CYP125 Δλmax (nm) LS": 27
  },
  {
    "Molecule": "Brc1cccc(Nc2ccncc2)c1",
    "Units Label": "nm",
    "CYP125 Δλmax (nm) LS": 31
  },
  {
    "Molecule": "CN(c1ccccc1)c1ccncc1",
    "Units Label": "nm",
    "CYP125 Δλmax (nm) LS": 25
  },
  {
    "Molecule": "CS(=O)(=O)Nc1ccc(Cc2ccncc2)cc1",
    "Units Label": "nm",
    "CYP125 Δλmax (nm) LS": 30
  },
  {
    "Molecule": "COc1ccc(Cc2ccncc2)cc1",
    "Units Label": "nm",
    "CYP125 Δλmax (nm) LS": 25
  },
  {
    "Molecule": "Nc1cccc(Nc2ccncc2)c1",
    "Units Label": "nm",
    "CYP125 Δλmax (nm) LS": 22
  },
  {
    "Molecule": "Nc1ccc(Nc2ccncc2)cc1",
    "Units Label": "nm",
    "CYP125 Δλmax (nm) LS": 31
  }
]

###

System: Mtb (Erdman)
Protocol Details: Extracellular Mtb (Erdman) growth on cholesterol-supplemented (0.01%) media, MABA
Assay type: cell-based, Mycobacterium tuberculosis
Condition Details: MABA 1 week post-compound treatment, mean ± SD n = 3, read-out: mixed media IC50 (Erdman)

[
  {
    "Compound": "COc1c(N2C[C@@H]3CCCN[C@@H]3C2)c(F)cc2c(=O)c(C(=O)O)cn(C3CC3)c12 [Moxifloxacin, moxifloxacin, reference compound]",
    "IC50 / nM": 330
  }
]

Origin of the recorded values: paper PMC12305662
